Experiment: Prodrug bioconversion in intestinal S9 cell fractions
Type: in vitro ADME
Details: Dog; 0.25 mg/mL; Mean of 3 experiments
Field: Clint (prodrug disappearance). Provide a value for each of the compounds that follow.

CN(C[C@H](Cc1ccccc1)OC(=O)CN)C(=O)c1cncc(C#Cc2cnn(C(F)F)c2)c1 [Example 21] : 12.0 μL/min/mg intestinal S9 protein

Could you tell me Clint (prodrug disappearance) for each of these compounds? They are listed below.
1. CN(C[C@H](Cc1ccccc1)OC(=O)CN)C(=O)c1cncc(C#Cc2cnn(C)n2)c1 [Example 25]
2. CN(C[C@H](Cc1ccccc1)OP(=O)(O)O)C(=O)c1cncc(C#Cc2cnn(C)n2)c1 [Example 23]
3. CN(C[C@H](Cc1ccccc1)OP(=O)(O)O)C(=O)c1cncc(C#Cc2cnn(C(F)F)c2)c1 [Example 19]

Result string:
1: 12.0 μL/min/mg intestinal S9 protein; 2: 356 μL/min/mg intestinal S9 protein; 3: 371.7 μL/min/mg intestinal S9 protein

###

Assay: Prodrug bioconversion in intestinal S9 cell fractions
Assay type: in vitro ADME
Settings: Human; 0.01 mg/mL S9 protein; Table F
Property Name: Clint (prodrug disappearance)

Illustrative cases are given below, each with its answer.
CN(C[C@H](Cc1ccccc1)OP(=O)(O)O)C(=O)c1cncc(C#Cc2cnn(C(F)F)c2)c1 : 1608.5 μL/min/mg intestinal S9 protein
CN(C[C@H](Cc1ccccc1)OP(=O)(O)O)C(=O)c1cncc(C#Cc2cnn(C)n2)c1 : 1180.2 μL/min/mg intestinal S9 protein
CN(C[C@H](Cc1ccccc1)OC(=O)CN)C(=O)c1cncc(C#Cc2cnn(C)n2)c1 : 378.1 μL/min/mg intestinal S9 protein

Please examine the following record next.
Query string: Reported Clint (prodrug disappearance), molecule CN(C[C@H](Cc1ccccc1)OC(=O)CN)C(=O)c1cncc(C#Cc2cnn(C(F)F)c2)c1 : ____
Result string: 815.9 μL/min/mg intestinal S9 protein

###

Assay: Prodrug bioconversion in intestinal S9 cell fractions
Type: in vitro ADME
Conditions: Rat; 0.25 mg/mL S9 protein; Table F
Would you mind telling me the reported Clint (prodrug disappearance) of each entry?

CN(C[C@H](Cc1ccccc1)OP(=O)(O)O)C(=O)c1cncc(C#Cc2cnn(C)n2)c1 : 36.7 μL/min/mg intestinal S9 protein
CN(C[C@H](Cc1ccccc1)OC(=O)CN)C(=O)c1cncc(C#Cc2cnn(C(F)F)c2)c1 : 901.6 μL/min/mg intestinal S9 protein
CN(C[C@H](Cc1ccccc1)OP(=O)(O)O)C(=O)c1cncc(C#Cc2cnn(C(F)F)c2)c1 : 42.4 μL/min/mg intestinal S9 protein

Query string: Give the measured Clint (prodrug disappearance) of CN(C[C@H](Cc1ccccc1)OC(=O)CN)C(=O)c1cncc(C#Cc2cnn(C)n2)c1 .
Result string: 393.8 μL/min/mg intestinal S9 protein

###

Experiment: Prodrug bioconversion in intestinal S9 cell fractions
Format: in vitro ADME
Settings: Monkey; 0.25 mg/mL; Experiment 1
Hi there, I'd appreciate the recorded Clint (prodrug disappearance) for every entry that follows.

CN(C[C@H](Cc1ccccc1)OC(=O)CN)C(=O)c1cncc(C#Cc2cnn(C)n2)c1 : 38.1 μL/min/mg intestinal S9 protein

Okay, here is my list. What is Clint (prodrug disappearance) for each of these?
1. CN(C[C@H](Cc1ccccc1)OC(=O)CN)C(=O)c1cncc(C#Cc2cnn(C(F)F)c2)c1
2. CN(C[C@H](Cc1ccccc1)OP(=O)(O)O)C(=O)c1cncc(C#Cc2cnn(C(F)F)c2)c1
3. CN(C[C@H](Cc1ccccc1)OP(=O)(O)O)C(=O)c1cncc(C#Cc2cnn(C)n2)c1

Result string:
89.6 μL/min/mg intestinal S9 protein
87.5 μL/min/mg intestinal S9 protein
55.4 μL/min/mg intestinal S9 protein
